study system: T1, human CD3 on CD3+ Jurkat cells (human, UniProt P07766 23-207)
T1 construct: whole, on cells; Native CD3 complex on cells; the other CD3 chains are not specified for this assay; also called Human CD3+ Jurkat
T1 sequence (P07766 23-207): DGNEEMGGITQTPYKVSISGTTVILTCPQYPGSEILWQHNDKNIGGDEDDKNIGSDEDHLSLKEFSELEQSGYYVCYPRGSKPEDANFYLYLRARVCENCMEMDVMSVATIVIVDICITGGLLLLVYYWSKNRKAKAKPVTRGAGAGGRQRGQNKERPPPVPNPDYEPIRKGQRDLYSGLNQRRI
procedure summary: flow cytometry on CD3+ Jurkat cells, ratio of MFI at pH 6.0 to pH 7.4
recorded endpoint: MFI pH 6.0/MFI pH 7.4
Answers are plain numbers.

# batch: return MFI pH 6.0/MFI pH 7.4 for each of the 3 binders below
1. SAD10318_P01_E01 (ADI-48577) (antibody, V domains shown, IgG; also called Ab193) VH: QVQLVQSGAEVKKPGASVKVSCKASGFNIKDYYMHWVRQAPGQRLEWMGWIDLENANTIYDAKFQGRVTITRDTSASTAYMELSSLRSEDTAVYYCARDAHHRYFYDVWGQGTLVTVSS VL: DIVMTQSPDSLAVSLGERATINCKSSQSLLNAHEGKNYLAWYQQKPGQPPKLLIYWASTRESGVPDRFSGSGSGTDFTLTISSLQAEDVAVYYCKQSHSHRTFGGGTKVEIK
2. SAD10320_P02_B06 (ADI-48653) (antibody, V domains shown, IgG; also called Ab83) VH: QVQLVQSGAEVKKPGASVKVSCKASGFNIKDYYMHWVRQAPGQRLEWMGWIDLENANTIYDAKFQGRVTITRDTSASTAYMELSSLRSEDTAVYYCARDAYGHWFYDVWGQGTLVTVSS VL: DIVMTQSPDSLAVSLGERATINCKSSQSLLNARTGKNYLAWYQQKPGQPPKLLIYWASTRESGVPDRFSGSGSGTDFTLTISSLQAEDVAVYYCKQSYHHRTFGGGTKVEIK
3. SAD10318_P03_E08 (ADI-48605) (antibody, V domains shown, IgG; also called Ab199) VH: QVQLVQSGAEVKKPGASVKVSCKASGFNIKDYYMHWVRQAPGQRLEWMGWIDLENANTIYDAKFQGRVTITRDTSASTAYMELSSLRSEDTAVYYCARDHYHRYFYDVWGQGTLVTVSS VL: DIVMTQSPDSLAVSLGERATINCKSSQSLLNAHTGKNHLAWYQQKPGQPPKLLIYWASTRESGVPDRFSGSGSGTDFTLTISSLQAEDVAVYYCKQSYHRRHFGGGTKVEIK

73.1
3
5.2

Values from patent US20220380463A1
